Source of measurements: the RNAGym collection of RNA variant scans (doi:10.1073/pnas.2313332121)

B1: TPR 5TU (parent)
chain: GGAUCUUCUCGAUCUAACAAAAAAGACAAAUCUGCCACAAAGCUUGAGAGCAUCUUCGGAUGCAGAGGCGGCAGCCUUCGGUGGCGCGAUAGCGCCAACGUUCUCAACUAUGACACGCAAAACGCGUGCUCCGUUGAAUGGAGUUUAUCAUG

variants of: B1; test: polymerase ribozyme fitness, log enrichment relative to wild type (log ratio); higher = more active; in vitro selection for triplet polymerase activity
Fewer inactive variants are shown than the library holds.
experimental_endpoint: polymerase ribozyme fitness (log ratio)
// no unit, no text: just the number

Answered examples (2):
> print(dat)
             mutant.name  recorded.measurement
1  C51U C93G A120C G143C                 -4.17
2              G92A A98G                    -3

I would be grateful if you could share the reported polymerase ribozyme fitness (log ratio) for A39U G80A C123G .
-2.65

Another variant to check: A17U A40G G94C C132U
-4.03
